Source: paper PMC7571145

System: PC-3 cells
Experiment Notes: MTT cytotoxicity assay on PC-3 prostate cancer cells
Format: cell-based
Test Parameters: 2.5 µM, 72 h, mean±SD, untreated control about 100
Observable: primary growth inhibitory screen, cell viability, PC-3

* Cc1ccc(-n2cc(CO)c(-c3cc4c(cc3O)CCCC4)n2)cc1 [Compound 18b] | 99.6
* C[C@]12CC[C@@H]3c4cc(-c5nn(-c6ccccc6)cc5CO)c(O)cc4CC[C@H]3[C@@H]1CC[C@@H]2O [Compound 11a] | 59.7
* OCc1cn(-c2ccc(Cl)cc2)nc1-c1cc2c(cc1O)CCCC2 [Compound 18c] | 90.9
* CC(=O)O[C@H]1CC[C@H]2[C@@H]3CCc4cc(O)c(-c5nn(-c6ccc(C)cc6)cc5CO)cc4[C@H]3CC[C@]12C [Compound 10b] | 88.0
